- Tested on: UO-31 renal
- test: NCI tumour cell line growth inhibition, 48 h
parameter: GI50

Worked examples, 3 molecules total:
CSc1ccc(C(=O)/C=C/c2ccc(F)cc2)cc1 = > 100 µM
COC(=O)C1=C2CO[C@@H]3C[C@H]4C(C)(C)CCC[C@]4(C)C(=CC1)[C@]23C = 60.7 µM
CN(C)CCC(=O)NCc1c2nc3ccccc3nc2n2ccccc12 = 20.7 µM

Return the recorded GI50 value; entry: CCN1CCN(c2cc(C)nc(NCc3cc(Nc4ccnc5cc(Cl)ccc45)ccc3F)n2)CC1
1.61 µM

* * *

- Tested on: HCC-2998 colon
- test: NCI tumour cell line growth inhibition, 48 h
TGI by entry:

Cc1cccc2cc3ccc4ccccc4c3cc12 = 46.7 µM
COc1cc(OC)c(NC2=NCCO2)cc1Cl = 71.1 µM
c1ccc([P+](CCC[P+](c2ccccc2)(c2ccccc2)c2ccccc2)(c2ccccc2)c2ccccc2)cc1 = > 100 µM
CN(Cc1ccccc1)c1nc(=[N+](C)C)ss1 = > 100 µM
CCOC(=O)/C(=C\NC#N)c1nc2ccccc2[nH]1 = > 100 µM

// below: TGI requested for another molecule
Fill in TGI for record O=C(Nc1cc([N+](=O)[O-])cc([N+](=O)[O-])c1)OC1C2CCC1C1OC1C2 (stereo unspecified)
> 50 µM

* * *

- Tested on: MDA-MB-231 breast
- test: NCI tumour cell line growth inhibition, 48 h
parameter: GI50

CCN1CCN(c2nc(C)cc(N(CCCNc3ccnc4cc(Cl)ccc34)Cc3ccco3)n2)CC1 = 3.18 µM

Give a short answer stating reported GI50 for O=C(Nn1c2c(sc1=NC1CC1)C(=O)c1ccccc1C2=O)c1cc2ccc1CCc1ccc(cc1)CC2 .
1.37 µM

Output measured GI50 for this item: CSc1ccc(C(=O)/C=C/c2ccc(F)cc2)cc1
74.6 µM

Read the entry Cc1ccc(C(=O)Nc2ccccc2C(=O)N/N=C(\c2ccccc2)c2ccccn2)cc1 and write its reported GI50.
0.517 µM

Provide one value: measured GI50 of COc1ccc2nc(C3=CN(C4OC(CO)C(O)C(O)C4O)C4C=CC=CC34)sc2c1 (stereo not given)
23.9 µM

* * *

- Test system: NCI-H522 lung
- test: NCI tumour cell line growth inhibition, 48 h; in the data active means GI50 below about 0.43 µM; inactive means the rest
One label from this list, please: active, inactive

CSc1ccc(C(=O)/C=C/c2ccc(F)cc2)cc1 = inactive
O=C(Nc1ccc([N+](=O)[O-])cc1)c1cc2ccccc2cc1O = active
COC(=O)C1=C2CO[C@@H]3C[C@H]4C(C)(C)CCC[C@]4(C)C(=CC1)[C@]23C = inactive
Cc1cc(S(=O)(=O)Nc2nc3ccsc3c(=O)n2Cc2ccccc2)c(S)cc1Cl = inactive
CCNC(=O)CCCCC(=O)c1c(C)[nH]c(/C=C2\N=C(c3ccc[nH]3)C=C2OC)c1C = inactive

For this molecule, state the assay outcome: CN(C)S(=O)(=O)c1cccc(-c2nc3sc4c(c3c(=O)[nH]2)CCCC4)c1
inactive

What outcome does the record of this test show for Cc1ccc2oc(=O)cc(C3c4ccc([nH]4)C(c4cc(=O)oc5ccc(C)cc45)c4ccc([nH]4)C(c4cc(=O)oc5ccc(C)cc45)c4ccc([nH]4)C(c4cc(=O)oc5ccc(C)cc45)c4ccc3[nH]4)c2c1 (stereo not drawn) ?
active

Name the outcome recorded for C[C@@H]1CCC2[C@@H](C)[C@H](OC(=O)CCC(=O)NCCNC(=O)Cc3cc(=O)oc4cc(N(C)C)ccc34)O[C@@H]3O[C@]4(C)CC[C@@H]1C23OO4 (stereo partly drawn) in the assay.
inactive
